# target: T1, LRP2 CR89 (human, UniProt P98164 1025-1102)
# T1 construct: domain: CR89; also called YVWR; L2 CR89; not shown: N-terminal hexahistidine and S-peptide tags of pET30(+)a
# T1 sequence (P98164 1025-1102): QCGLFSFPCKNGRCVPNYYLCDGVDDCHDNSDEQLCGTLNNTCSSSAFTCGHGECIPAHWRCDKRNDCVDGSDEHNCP
# assay remarks: solid-phase assay; OD at the highest ligand concentration as percent of the highest OD of all ligands

binder	% max (%)
MegaRAP1 d3 (ligand, V175L lies outside the d3 construct; also called RAPv2A d3; RAP v2 d3; not shown: N-terminal hexahistidine and S-peptide tags of pET30(+)a) LDRLRRVSHQGYTTEAKFEEPRVIDLWDLAQSANLTDKELEAFREELKYFKAKIEAHNHYQKQLEIAHEELRHAESVGDGERVSRSREKHALLEGRTKELGYTVKKHLQDLSGRISRAR	88
MegaRAP1 d3 revertant K251E (ligand, not shown: N-terminal hexahistidine and S-peptide tags of pET30(+)a) LDRLRRVSHQGYTTEAKFEEPRVIDLWDLAQSANLTDKELEAFREELKYFEAKIEAHNHYQKQLEIAHEELRHAESVGDGERVSRSREKHALLEGRTKELGYTVKKHLQDLSGRISRAR	11
RAP d3 forward mutant K256A, K270E (ligand, also called K270E in combination with K256A; not shown: N-terminal hexahistidine and S-peptide tags of pET30(+)a) LDRLRRVSHQGYSTEAEFEEPRVIDLWDLAQSANLTDKELEAFREELKHFEAKIEAHNHYQKQLEIAHEELRHAESVGDGERVSRSREKHALLEGRTKELGYTVKKHLQDLSGRISRAR	3
MegaRAP1 d3 double revertant A256K, E270K (ligand, not shown: N-terminal hexahistidine and S-peptide tags of pET30(+)a) LDRLRRVSHQGYTTEAKFEEPRVIDLWDLAQSANLTDKELEAFREELKYFKAKIEKHNHYQKQLEIAHEKLRHAESVGDGERVSRSREKHALLEGRTKELGYTVKKHLQDLSGRISRAR	73
MegaRAP1 d3 revertant T213S (ligand, MegaRAP1 d3 with position 213 reverted to wild type; not shown: N-terminal hexahistidine and S-peptide tags of pET30(+)a) LDRLRRVSHQGYSTEAKFEEPRVIDLWDLAQSANLTDKELEAFREELKYFKAKIEAHNHYQKQLEIAHEELRHAESVGDGERVSRSREKHALLEGRTKELGYTVKKHLQDLSGRISRAR	94
